Would you mind telling me the reported GI50 of each entry?
Tested on: TK-10
EXPERIMENTAL_DETAILS: NCI tumour cell line growth inhibition, 48 h
Active and inactive are the calls of the source. Cut-off read from the data, not from the text of the source: active = GI50 up to about 1.1 µM and inactive = higher.

Query: Form entry - test system: TK-10; read-out: GI50; compound: `CSC(SC)=C(C#N)C(=O)Nc1ccc(Cl)cc1`
Result: 23.8 µM (inactive)

Query: Checklist item: GI50 tested on TK-10, entry COc1ccc(/C=C/C(=O)c2c(-c3ccccc3)nn(C)c(=O)c2N2CC2C)cc1 (stereo not given) , value?
Result: 41.1 µM (inactive)

Query: Form field: GI50 recorded for CC(=O)OC1=CC(n2cc(F)c(=O)[nH]c2=O)OC(C)C1=O (stereo not given) with TK-10 (enter value)
Result: > 77.4 µM (inactive)

Query: Lab note: need GI50 with TK-10 for entry `CS(=O)(=O)OCCN1CCN(C(=O)c2cccc3c(Nc4ccc(S(=O)(=O)N=C(N)N)cc4)c4ccccc4nc23)CC1` , please look it up.
Result: > 100 µM (inactive)

Batch request: GI50 per item, same order as input.
1. CCCCCCCCCCCCCCCC[N+](C)(C)Cc1ccc(C[N+](C)(C)CCCCCCCCCCCCCCCC)cc1
2. O=C1/C(=C/c2ccc(Br)s2)NC(=S)N1c1ccccc1
3. COc1cc(C(=O)O)c([N+](=O)[O-])c(OC)c1OC
4. CC(C)OP(=O)(OC(C)C)c1nn(-c2ccc([N+](=O)[O-])cc2)c(=N)s1
5. N#C[C@H](C(=O)c1ccccc1F)c1nc2ccccc2[nH]1
6. O=C1CCCCC/C1=C\c1cccc(F)c1
7. COC(=O)OC[C@H]1O[C@@H](n2cc(C)c(=O)[nH]c2=O)CC1OC(=O)OC (stereo not given in full)
8. Cc1nc2c(=O)n3c4c(cccc4c2o1)CCC3

Result:
["17.8 µM (inactive)", "> 100 µM (inactive)", "> 100 µM (inactive)", "> 100 µM (inactive)", "> 100 µM (inactive)", "62.5 µM (inactive)", "> 100 µM (inactive)", "> 100 µM (inactive)"]

Could I get GI50 for every one of these entries?
1. Nc1n[nH]c(N)n1 [GUANAZOLE]
2. COc1cc2c3cc1Oc1c(OC)c(OC)cc4c1C(Cc1ccc(O)c(c1)Oc1ccc(cc1)CC3N(C)CC2)CN(C)C4 (stereo not given)
3. O=c1n(-c2ccccc2)c(=O)n2n1C1Cc3ccccc3C12 (stereo not given)

Result:
["> 10000 µM (inactive)", "16.1 µM (inactive)", "> 100 µM (inactive)"]
